Molecular target: Heat shock protein HSP 90-alpha (Homo sapiens, UniProt P07900)
Experiment: Displacement of Cy3B-GM from recombinant Hsp90alpha (unknown origin) after 24 hrs by fluorescence polarization assay
metricName: IC50

CCCC(C)n1c(Sc2ccc(Cl)cc2Cl)nc2c(N)ncnc21 (stereo not drawn); > 100 µM
CCCC(C)n1c(Sc2cc(Cl)cc(Cl)c2)nc2c(N)ncnc21 (stereo not drawn); > 50 µM
C#CCC(C)n1c(Sc2ccc(Cl)cc2Cl)nc2c(N)ncnc21 (stereo not drawn); > 50 µM
C#CCCCn1c(C(=O)c2ccc(Cl)cc2Cl)nc2c(N)ncnc21; > 100 µM

Inquiry: Form field: reported IC50 of `C#CCCCn1c(Sc2cc(C(F)(F)F)ccc2Cl)nc2c(N)ncnc21`
Reply text: > 100 µM
